- System: Mycobacterium tuberculosis Erdman (autoluminescent)
- Protocol Description: GRinf, maximum normalised growth rate inhibition (unitless (-1 to 1)); higher = less effect (negative = killing)
- Condition Notes: in vitro model: standard 7H9 glycerol; time point: constant = terminal
Label 1 (yes) when GRinf >= 0.03; otherwise 0 (no).

Worked examples follow.
[
  {
    "Molecule": "CC[C@@H](CO)NCCN[C@@H](CC)CO [ethambutol] + COc1c(N2C[C@@H]3CCCN[C@@H]3C2)c(F)cc2c(=O)c(C(=O)O)cn(C3CC3)c12 [moxifloxacin]",
    "Label": "0 (no)"
  },
  {
    "Molecule": "CC[C@@H](CO)NCCN[C@@H](CC)CO [ethambutol] + NNC(=O)c1ccncc1 [isoniazid]",
    "Label": "0 (no)"
  },
  {
    "Molecule": "COc1nc2ccc(Br)cc2cc1[C@@H](c1ccccc1)[C@@](O)(CCN(C)C)c1cccc2ccccc12 [bedaquiline] + CC(C)/N=c1\\cc2n(-c3ccc(Cl)cc3)c3ccccc3nc-2cc1Nc1ccc(Cl)cc1 [clofazimine]",
    "Label": "0 (no)"
  },
  {
    "Molecule": "NNC(=O)c1ccncc1 [isoniazid] + NC(=O)c1cnccn1 [pyrazinamide]",
    "Label": "1 (yes)"
  }
]

Turning to the following molecule.
Exercise: Decide: is the reported value of GRinf for O=[N+]([O-])c1cn2c(n1)OC[C@@H](OCc1ccc(OC(F)(F)F)cc1)C2 [pretomanid] + CO[C@H]1/C=C/O[C@@]2(C)Oc3c(C)c(O)c4c(O)c(c(/C=N/N5CCN(C)CC5)c(O)c4c3C2=O)NC(=O)/C(C)=C\C=C\[C@H](C)[C@H](O)[C@@H](C)[C@@H](O)[C@@H](C)[C@H](OC(C)=O)[C@@H]1C [rifampicin] equal to or greater than 0.03?
Key: 1 (yes)

* * *

- Tested on: Mycobacterium tuberculosis Erdman (autoluminescent)
- Protocol Description: Einf, fitted maximum growth inhibition of three-drug combination (fraction); higher = stronger maximal inhibition
- Condition Notes: in vitro model: cholesterol 0.05 mM; time point: constant (~7 days, model-specific)
Einf overview
Number only, please.

[
  {
    "Compound": "CC(C)/N=c1\\cc2n(-c3ccc(Cl)cc3)c3ccccc3nc-2cc1Nc1ccc(Cl)cc1 [clofazimine] + CC[C@@H](CO)NCCN[C@@H](CC)CO [ethambutol] + COc1c(N2C[C@@H]3CCCN[C@@H]3C2)c(F)cc2c(=O)c(C(=O)O)cn(C3CC3)c12 [moxifloxacin]",
    "Einf": 0.651
  }
]

Exercise: Please give the documented Einf of NNC(=O)c1ccncc1 [isoniazid] + NC(=O)c1cnccn1 [pyrazinamide] + CO[C@H]1/C=C/O[C@@]2(C)Oc3c(C)c(O)c4c(O)c(c(/C=N/N5CCN(C)CC5)c(O)c4c3C2=O)NC(=O)/C(C)=C\C=C\[C@H](C)[C@H](O)[C@@H](C)[C@@H](O)[C@@H](C)[C@H](OC(C)=O)[C@@H]1C [rifampicin]
Key: 0.633

Exercise: Please give the documented Einf of COc1nc2ccc(Br)cc2cc1[C@@H](c1ccccc1)[C@@](O)(CCN(C)C)c1cccc2ccccc12 [bedaquiline] + CC(C)/N=c1\cc2n(-c3ccc(Cl)cc3)c3ccccc3nc-2cc1Nc1ccc(Cl)cc1 [clofazimine] + CC[C@@H](CO)NCCN[C@@H](CC)CO [ethambutol]
Key: 0.762

* * *

GRinf overview
- System: Mycobacterium tuberculosis Erdman (autoluminescent)
- Protocol Description: GRinf, maximum normalised growth rate inhibition (three-drug combination) (unitless (-1 to 1)); higher = less effect (negative = killing)
- Condition Notes: in vitro model: cholesterol-high 0.2 mM; time point: constant (~7 days, model-specific)

Below are worked cases with known answers.
[
  {
    "Compound": "COc1nc2ccc(Br)cc2cc1[C@@H](c1ccccc1)[C@@](O)(CCN(C)C)c1cccc2ccccc12 [bedaquiline] + O=[N+]([O-])c1cn2c(n1)OC[C@@H](OCc1ccc(OC(F)(F)F)cc1)C2 [pretomanid] + CO[C@H]1/C=C/O[C@@]2(C)Oc3c(C)c(O)c4c(O)c(c(/C=N/N5CCN(C)CC5)c(O)c4c3C2=O)NC(=O)/C(C)=C\\C=C\\[C@H](C)[C@H](O)[C@@H](C)[C@@H](O)[C@@H](C)[C@H](OC(C)=O)[C@@H]1C [rifampicin]",
    "GRinf": -0.229
  },
  {
    "Compound": "NC(=O)c1cnccn1 [pyrazinamide] + CO[C@H]1/C=C/O[C@@]2(C)Oc3c(C)c(O)c4c(O)c(c(/C=N/N5CCN(C6CCCC6)CC5)c(O)c4c3C2=O)NC(=O)/C(C)=C\\C=C\\[C@H](C)[C@H](O)[C@@H](C)[C@@H](O)[C@@H](C)[C@H](OC(C)=O)[C@@H]1C [rifapentine] + CO[C@H]1/C=C/O[C@@]2(C)Oc3c(C)c(O)c4c(O)c(c(/C=N/N5CCN(C)CC5)c(O)c4c3C2=O)NC(=O)/C(C)=C\\C=C\\[C@H](C)[C@H](O)[C@@H](C)[C@@H](O)[C@@H](C)[C@H](OC(C)=O)[C@@H]1C",
    "GRinf": -0.227
  },
  {
    "Compound": "CC[C@@H](CO)NCCN[C@@H](CC)CO [ethambutol] + CO[C@H]1/C=C/O[C@@]2(C)Oc3c(C)c(O)c4c(O)c(c(/C=N/N5CCN(C6CCCC6)CC5)c(O)c4c3C2=O)NC(=O)/C(C)=C\\C=C\\[C@H](C)[C@H](O)[C@@H](C)[C@@H](O)[C@@H](C)[C@H](OC(C)=O)[C@@H]1C [rifapentine] + CO[C@H]1/C=C/O[C@@]2(C)Oc3c(C)c(O)c4c(O)c(c(/C=N/N5CCN(C)CC5)c(O)c4c3C2=O)NC(=O)/C(C)=C\\C=C\\[C@H](C)[C@H](O)[C@@H](C)[C@@H](O)[C@@H](C)[C@H](OC(C)=O)[C@@H]1C [rifampicin]",
    "GRinf": -0.442
  },
  {
    "Compound": "COc1nc2ccc(Br)cc2cc1[C@@H](c1ccccc1)[C@@](O)(CCN(C)C)c1cccc2ccccc12 [bedaquiline] + CC[C@@H](CO)NCCN[C@@H](CC)CO [ethambutol] + CO[C@H]1/C=C/O[C@@]2(C)Oc3c(C)c(O)c4c(O)c(c(/C=N/N5CCN(C)CC5)c(O)c4c3C2=O)NC(=O)/C(C)=C\\C=C\\[C@H](C)[C@H](O)[C@@H](C)[C@@H](O)[C@@H](C)[C@H](OC(C)=O)[C@@H]1C [rifampicin]",
    "GRinf": -0.609
  }
]

Exercise: Please give the documented GRinf of CC(=O)NC[C@H]1CN(c2ccc(N3CCOCC3)c(F)c2)C(=O)O1 [linezolid] + COc1c(N2C[C@@H]3CCCN[C@@H]3C2)c(F)cc2c(=O)c(C(=O)O)cn(C3CC3)c12 [moxifloxacin] + CO[C@H]1/C=C/O[C@@]2(C)Oc3c(C)c(O)c4c(O)c(c(/C=N/N5CCN(C6CCCC6)CC5)c(O)c4c3C2=O)NC(=O)/C(C)=C\C=C\[C@H](C)[C@H](O)[C@@H](C)[C@@H](O)[C@@H](C)[C@H](OC(C)=O)[C@@H]1C [rifapentine]
Key: -0.639

* * *

- Test system: Mycobacterium tuberculosis Erdman (autoluminescent)
- Protocol Description: total FIC90 (Loewe) at 90% inhibition, three-drug combination (log2); higher = more antagonistic
- Condition Notes: in vitro model: dormancy (butyrate + nitrate, low O2); time point: constant (~7 days, model-specific)
total FIC90 overview
Number only, please.

Exercise: GET total FIC90 where system = Mycobacterium tuberculosis Erdman (autoluminescent) and item = CC(=O)NC[C@H]1CN(c2ccc(N3CCOCC3)c(F)c2)C(=O)O1 [linezolid] + O=[N+]([O-])c1cn2c(n1)OC[C@@H](OCc1ccc(OC(F)(F)F)cc1)C2 [pretomanid] + CO[C@H]1/C=C/O[C@@]2(C)Oc3c(C)c(O)c4c(O)c(c(/C=N/N5CCN(C6CCCC6)CC5)c(O)c4c3C2=O)NC(=O)/C(C)=C\C=C\[C@H](C)[C@H](O)[C@@H](C)[C@@H](O)[C@@H](C)[C@H](OC(C)=O)[C@@H]1C [rifapentine]
Key: 0.707

Exercise: GET total FIC90 where system = Mycobacterium tuberculosis Erdman (autoluminescent) and item = COc1nc2ccc(Br)cc2cc1[C@@H](c1ccccc1)[C@@](O)(CCN(C)C)c1cccc2ccccc12 [bedaquiline] + CC(=O)NC[C@H]1CN(c2ccc(N3CCOCC3)c(F)c2)C(=O)O1 [linezolid] + CO[C@H]1/C=C/O[C@@]2(C)Oc3c(C)c(O)c4c(O)c(c(/C=N/N5CCN(C6CCCC6)CC5)c(O)c4c3C2=O)NC(=O)/C(C)=C\C=C\[C@H](C)[C@H](O)[C@@H](C)[C@@H](O)[C@@H](C)[C@H](OC(C)=O)[C@@H]1C [rifapentine]
Key: 1.57

Exercise: GET total FIC90 where system = Mycobacterium tuberculosis Erdman (autoluminescent) and item = COc1nc2ccc(Br)cc2cc1[C@@H](c1ccccc1)[C@@](O)(CCN(C)C)c1cccc2ccccc12 [bedaquiline] + CC(=O)NC[C@H]1CN(c2ccc(N3CCOCC3)c(F)c2)C(=O)O1 [linezolid] + NC(=O)c1cnccn1 [pyrazinamide]
Key: -0.755

// provenance: the supplement of paper PMC8617591
